B1: Osa-1-4 twister ribozyme (parent)
chain: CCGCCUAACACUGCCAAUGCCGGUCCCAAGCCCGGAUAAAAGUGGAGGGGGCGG

# Variants of: B1
# assay remarks: self-cleavage, relative activity (ratio to wild type); higher = more cleavage; co-transcriptional
Consider the following variants and their measured self-cleavage readings.
endpoint label: self-cleavage

1. C31G G42U : 0.02
2. A8U G34C : 0.09
3. G22U G34U : 0.79
4. A28U C20U : 0.95
5. A28U G44A : 0.74
6. A7U G45C : 0.04
7. C20U C52A : 0.9
8. G13U G23U : 0.02
9. A7C C32A : 0.04
10. A46G C25G : 0.02
11. G47U G54A : 0.28
12. C11A C32A : 0.06
13. C27G C52G : 0.14
14. A38C A41U : 1
15. C25G G47A : 0.05
16. G45A G50A : 0.23
17. A16U G23U : 0.09
18. A39G U37C : 1
19. A28U U12C : 0.13
20. C33A G50C : 0.08
21. C52U G44C : 1.05
22. G19A G23C : 0.06
23. C32U G45U : 0.04
24. A8U C15U : 0.08
25. A39U G45C : 0.06
26. A17C C27G : 0.03
27. C27A G47C : 0.36
28. C26G G23C : 0.04
29. A29U G34U : 0.05
30. C11A G30C : 0.03
31. C9A G54C : 0.34
32. A46U C15G : 0.08
33. A29C G51C : 0.02
34. A36G A41U : 0.99
35. A39C A41G : 0.23
36. A39U C25A : 0.06
37. G44C : 0.98
38. A46U C32U : 0.05
39. A10G G13U : 0.04
40. C9G U43G : 0.21
41. C27A G47U : 0.83
42. C14A G19C : 0.04
43. C20A C27U : 0.31
44. A7C C26A : 0.03
45. C27A G50C : 0.08
46. A36U G45A : 0.46

Cited source for all entries: the RNAGym collection of RNA variant scans (doi:10.1002/anie.201605470)
